The following molecules are shown together with reported pEC50 values.
system: E. coli; assay: Antibacterial activity evaluation (turbidity, OD600); assay type: cell-based, Escherichia coli (ATCC25922); conditions: Escherichia coli; E. coli ATCC25922; read-out: EC50
pEC50: −log10 of the molar value.
measured-parameter: pEC50

INSERT INTO results (molecule, target_entity, measured_parameter, endpoint_value) VALUES
  ('O=c1[nH]c(=O)n([C@H]2C[C@H](O)[C@@H](CO)O2)cc1F', 'E. coli', 'pEC50', 5.00),
  ('Cc1n[nH]c2c1C(c1cc(N3CCCC3)cc(C(F)(F)F)c1)(C(C)C)C(C#N)=C(N)O2 (centres unmarked)', 'E. coli', 'pEC50', '< 4.00'),
  ('Nc1nc2[nH]cc(CCc3ccc(C(=O)N[C@@H](CCC(=O)O)C(=O)O)cc3)c2c(=O)[nH]1', 'E. coli', 'pEC50', '< 4.00'),
  ('Cc1n[nH]c2c1[C@](c1cc(CO)cc(-c3ccccc3)c1)(C(C)C)C(C#N)=C(N)O2 [(+)-SHIN-1]', 'E. coli', 'pEC50', '< 5.70'),
  ('O=c1[nH]c(=O)n([C@@H]2O[C@H](CO)[C@@H](O)[C@H]2O)cc1F', 'E. coli', 'pEC50', 5.00),
  ('COc1cc(Cc2cnc(N)nc2N)cc(OC)c1OC', 'E. coli', 'pEC50', 6.77),
  ('Cc1nc2ccc(CN(C)c3ccc(C(=O)N[C@@H](CCC(=O)O)C(=O)O)s3)cc2c(=O)[nH]1', 'E. coli', 'pEC50', '< 4.00'),
  ('CN(Cc1cnc2nc(N)nc(N)c2n1)c1ccc(C(=O)N[C@@H](CCC(=O)O)C(=O)O)cc1 [MTX, methotrexate]', 'E. coli', 'pEC50', '< 4.00');
